Biological target: T1, RBM45 RRM3 (Homo sapiens, UniProt Q8IUH3 370-476)
T1 sequence: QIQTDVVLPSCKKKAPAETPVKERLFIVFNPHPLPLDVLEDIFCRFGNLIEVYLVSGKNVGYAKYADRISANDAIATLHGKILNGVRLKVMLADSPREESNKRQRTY
Assay: fluorescence polarization; FP: 100 nM FAM-RNA/ssDNA, 10 mM Tris-HCl pH 7.5, 200 mM NaCl, 1 mM DTT, 1 mM EDTA, 5% glycerol, 25 °C, 30 min
Conditions: protein: recombinant; tags: C-terminal His-tag; label: 5'-FAM
parameter: pKd
Scale note: pKd = -log10(concentration in M).

# get_value(readout='pKd', item= GGAGGG (ssRNA) ) 4.21

# get_value(readout='pKd', item= UGACGG (ssRNA) ) 5.67

# get_value(readout='pKd', item= GGUCGG (ssRNA) ) 4.15

# get_value(readout='pKd', item= UUUUUU (ssRNA) [polyU 6-mer RNA] ) 3.70
